Assay: Confirmatory qHTS for Inhibitors of ATXN expression; note: potency is the fitted concentration of half-maximal effect; nearly all actives have a fitted effect of over 65% in size
Conditions: ATXN2-luciferase reporter cells, luminescence, 24 h; series mostly up to 57.5 µM
Screen size: about 2,100 compounds; about 940 (45%) were called active. Not shown: some 48% with an inconclusive outcome. So high a share suggests a set chosen from earlier hits. The list shows a part of the results.

compound	Potency
C[C@H]1C[C@@H](C)C(=O)[C@@H]([C@H](O)CC2CC(=O)NC(=O)C2)C1	0.178 µM (active)
O=C(NN=Cc1ccc(N(CCCl)CCCl)cc1)c1cc(=O)[nH]c(=O)[nH]1	3.16 µM (active)
C[C@H]1CCC[C@@H](O)CCC/C=C/c2cc(O)cc(O)c2C(=O)O1	1.41 µM (active)
CC12CCC(O)CC1CCC1C2CCC2(C)C(C3=CC(=O)OC3)C(O)CC12O (stereo not given)	3.16 µM (active)
COc1ccc(O)c2c(=O)c3c(OC)cc4c(c3oc12)C1C=COC1O4 (stereo not given)	2 µM (active)
O=c1[nH]c2ccccc2n1C1CCN(C(c2cc3ccccc3o2)c2nnnn2-c2ccc3c(c2)OCCO3)CC1 (stereo not given)	3.16 µM (active)
C[C@H]1CCC[C@H](O)CCCCCc2cc(O)cc(O)c2C(=O)O1	3.16 µM (active)
C[C@@H]1O[C@@H](O[C@@H]2C=C3CC[C@@H]4C(CC[C@]5(C)[C@@H](c6ccc(=O)oc6)CC[C@]45O)[C@@]3(C)CC2)[C@H](O)[C@H](O)[C@H]1O (stereo not given in full)	0.112 µM (active)
O=[N+]([O-])c1oc2ccc3ccccc3c2c1CCO	14.1 µM (active)
CC12CCC3C(CCC4(O)CC(O)CCC34C=NO)C1(O)CCC2C1=COC(=O)C1 (stereo not given)	0.282 µM (active)
